Data provenance is paper PMC13397619.

B1: NLV3 TCR beta chain (CDR3β only) (parent)
chain: ASSPTGGSPSPLH
partner: NLCPMVATV

variants of: B1; test: T-Switch: Jurkat TCRβ−/− cells expressing a CDR3 saturation-mutagenesis library, stained with two peptide-HLA-A*02:01 tetramers (original and novel peptide) plus anti-CD3, FACS-sorted into four gates, gDNA sequenced; conditions: with HLA-A*02:01 with peptide … (NLV 2-1, the novel peptide), tetramers 1 µg/mL, 30 min on ice, SP, DP and SW gates expanded about 10 days between rounds ('two to three rounds of selection' in the Methods), gate SW: higher = more of the variant in the gate that binds the novel peptide and not the original one = switched binding. Fold enrichment of the CDR3 variant in one FACS gate of a two-tetramer stain, unresolved parent, parent is a CDR3 fragment, scale: fold enrichment, numbering: sequential-on-construct, sequence starts at 1
Measured enrichment by item
measured_parameter: enrichment

[[record]]
mutant = "[…] (CDR3 as printed); S2V derived by comparing it with the table's wild-type CDR3 ASSPTGGSPSPLH"
test_result = 0

[[record]]
mutant = "[…] (CDR3 as printed); H13N derived by comparing it with the table's wild-type CDR3 ASSPTGGSPSPLH"
test_result = 0

[[record]]
mutant = "[…] (CDR3 as printed); H13K derived by comparing it with the table's wild-type CDR3 ASSPTGGSPSPLH"
test_result = 0

[[record]]
mutant = "[…] (CDR3 as printed); S3A derived by comparing it with the table's wild-type CDR3 ASSPTGGSPSPLH"
test_result = 0

[[record]]
mutant = "[…] (CDR3 as printed); G7V derived by comparing it with the table's wild-type CDR3 ASSPTGGSPSPLH"
test_result = 0

[[record]]
mutant = "[…] (CDR3 as printed); L12C derived by comparing it with the table's wild-type CDR3 ASSPTGGSPSPLH"
test_result = 0

[[record]]
mutant = "[…] (CDR3 as printed); L12P derived by comparing it with the table's wild-type CDR3 ASSPTGGSPSPLH"
test_result = 0

[[record]]
mutant = "[…] (CDR3 as printed); P11G derived by comparing it with the table's wild-type CDR3 ASSPTGGSPSPLH"
test_result = 0

[[record]]
mutant = "[…] (CDR3 as printed); T5R derived by comparing it with the table's wild-type CDR3 ASSPTGGSPSPLH"
test_result = 0

[[record]]
mutant = "[…] (CDR3 as printed); L12F derived by comparing it with the table's wild-type CDR3 ASSPTGGSPSPLH"
test_result = 0

[[record]]
mutant = "[…] (CDR3 as printed); P11S derived by comparing it with the table's wild-type CDR3 ASSPTGGSPSPLH"
test_result = 0

[[record]]
mutant = "[…] (CDR3 as printed); S8K derived by comparing it with the table's wild-type CDR3 ASSPTGGSPSPLH"
test_result = 0

[[record]]
mutant = "[…] (CDR3 as printed); P11K derived by comparing it with the table's wild-type CDR3 ASSPTGGSPSPLH"
test_result = 0

[[record]]
mutant = "[…] (CDR3 as printed); S10F derived by comparing it with the table's wild-type CDR3 ASSPTGGSPSPLH"
test_result = 0

[[record]]
mutant = "[…] (CDR3 as printed); S10N derived by comparing it with the table's wild-type CDR3 ASSPTGGSPSPLH"
test_result = 0

[[record]]
mutant = "[…] (CDR3 as printed); P11A derived by comparing it with the table's wild-type CDR3 ASSPTGGSPSPLH"
test_result = 0

[[record]]
mutant = "[…] (CDR3 as printed); H13A derived by comparing it with the table's wild-type CDR3 ASSPTGGSPSPLH"
test_result = 0

[[record]]
mutant = "[…] (CDR3 as printed); P11E derived by comparing it with the table's wild-type CDR3 ASSPTGGSPSPLH"
test_result = 0

[[record]]
mutant = "[…] (CDR3 as printed); S10L derived by comparing it with the table's wild-type CDR3 ASSPTGGSPSPLH"
test_result = 0

[[record]]
mutant = "[…] (CDR3 as printed); S2G derived by comparing it with the table's wild-type CDR3 ASSPTGGSPSPLH"
test_result = 0

[[record]]
mutant = "[…] (CDR3 as printed); A1F derived by comparing it with the table's wild-type CDR3 ASSPTGGSPSPLH"
test_result = 0

[[record]]
mutant = "[…] (CDR3 as printed); H13G derived by comparing it with the table's wild-type CDR3 ASSPTGGSPSPLH"
test_result = 0

[[record]]
mutant = "[…] (CDR3 as printed); S10E derived by comparing it with the table's wild-type CDR3 ASSPTGGSPSPLH"
test_result = 0

[[record]]
mutant = "[…] (CDR3 as printed); P11L derived by comparing it with the table's wild-type CDR3 ASSPTGGSPSPLH"
test_result = 0

[[record]]
mutant = "[…] (CDR3 as printed); P4M derived by comparing it with the table's wild-type CDR3 ASSPTGGSPSPLH"
test_result = 0

[[record]]
mutant = "[…] (CDR3 as printed); S3W derived by comparing it with the table's wild-type CDR3 ASSPTGGSPSPLH"
test_result = 0

[[record]]
mutant = "[…] (CDR3 as printed); G6P derived by comparing it with the table's wild-type CDR3 ASSPTGGSPSPLH"
test_result = 0

[[record]]
mutant = "[…] (CDR3 as printed); P4N derived by comparing it with the table's wild-type CDR3 ASSPTGGSPSPLH"
test_result = 0

[[record]]
mutant = "[…] (CDR3 as printed); S2R derived by comparing it with the table's wild-type CDR3 ASSPTGGSPSPLH"
test_result = 0

[[record]]
mutant = "[…] (CDR3 as printed); G7H derived by comparing it with the table's wild-type CDR3 ASSPTGGSPSPLH"
test_result = 0

[[record]]
mutant = "[…] (CDR3 as printed); G7N derived by comparing it with the table's wild-type CDR3 ASSPTGGSPSPLH"
test_result = 0

[[record]]
mutant = "[…] (CDR3 as printed); P4H derived by comparing it with the table's wild-type CDR3 ASSPTGGSPSPLH"
test_result = 0

[[record]]
mutant = "[…] (CDR3 as printed); A1L derived by comparing it with the table's wild-type CDR3 ASSPTGGSPSPLH"
test_result = 0

[[record]]
mutant = "[…] (CDR3 as printed); G6Q derived by comparing it with the table's wild-type CDR3 ASSPTGGSPSPLH"
test_result = 0

[[record]]
mutant = "[…] (CDR3 as printed); A1M derived by comparing it with the table's wild-type CDR3 ASSPTGGSPSPLH"
test_result = 0

[[record]]
mutant = "[…] (CDR3 as printed); P9C derived by comparing it with the table's wild-type CDR3 ASSPTGGSPSPLH"
test_result = 0

[[record]]
mutant = "[…] (CDR3 as printed); T5E derived by comparing it with the table's wild-type CDR3 ASSPTGGSPSPLH"
test_result = 0

[[record]]
mutant = "[…] (CDR3 as printed); G7Q derived by comparing it with the table's wild-type CDR3 ASSPTGGSPSPLH"
test_result = 0

[[record]]
mutant = "[…] (CDR3 as printed); A1T derived by comparing it with the table's wild-type CDR3 ASSPTGGSPSPLH"
test_result = 0

[[record]]
mutant = "[…] (CDR3 as printed); P11Y derived by comparing it with the table's wild-type CDR3 ASSPTGGSPSPLH"
test_result = 0

[[record]]
mutant = "[…] (CDR3 as printed); H13V derived by comparing it with the table's wild-type CDR3 ASSPTGGSPSPLH"
test_result = 0

[[record]]
mutant = "[…] (CDR3 as printed); P11N derived by comparing it with the table's wild-type CDR3 ASSPTGGSPSPLH"
test_result = 0

[[record]]
mutant = "[…] (CDR3 as printed); P9Y derived by comparing it with the table's wild-type CDR3 ASSPTGGSPSPLH"
test_result = 0

[[record]]
mutant = "[…] (CDR3 as printed); S10I derived by comparing it with the table's wild-type CDR3 ASSPTGGSPSPLH"
test_result = 0

[[record]]
mutant = "[…] (CDR3 as printed); S3E derived by comparing it with the table's wild-type CDR3 ASSPTGGSPSPLH"
test_result = 0

[[record]]
mutant = "[…] (CDR3 as printed); P11Q derived by comparing it with the table's wild-type CDR3 ASSPTGGSPSPLH"
test_result = 0

